Data origin, for the record: PubChem BioAssay AID1963973

Tested on: 883617-216-R-J1-PDC tumor spheroids, viability;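 further: spheroids exposed to agents for 7 days before the viability read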
Test: Anticancer human tumor 883617-216-R-J1-PDC patient-derived bladder carcinoma cell line growth inhibition [PI3K]
Details: second compound 1 µM; first compound 0.1 µM; hits give low values; spheroids with HUVEC and MSC
result.type: viability, T/C (%)
Your answer should be a plain number; it is taken to be in %.

Examples from the recorded data:
- molecule: "CC(Cn1ccc(-c2ccc(C#N)c(Cl)c2)n1)NC(=O)c1cc(C(C)O)[nH]n1 (configuration not stated) + COc1c(OCCCN2CCOCC2)ccc2c3n(c(=NC(=O)c4cnc(N)nc4)nc12)CCN3"
  quantity.unit: "%"
  recorded.measurement: 2.54
- molecule: "CC1(C)CCC(CN2CCN(c3ccc(C(=O)NS(=O)(=O)c4ccc(NCC5CCOCC5)c([N+](=O)[O-])c4)c(Oc4cnc5[nH]ccc5c4)c3)CC2)=C(c2ccc(Cl)cc2)C1 + CC(Nc1ncnc2nc[nH]c12)c1cc2cccc(Cl)c2c(=O)n1-c1ccccc1"
  quantity.unit: "%"
  recorded.measurement: 85.8
- molecule: "CC(C)n1nc(-c2ccc3oc(N)nc3c2)c2c(N)ncnc21 + CC(Nc1ccc2c(c1)OCCn1cc(N3C(=O)OCC3C(F)F)nc1-2)C(N)=O"
  quantity.unit: "%"
  recorded.measurement: 5.87
- molecule: "CC(=O)c1c(C)c2cnc(Nc3ccc(N4CCNCC4)cn3)nc2n(C2CCCC2)c1=O + Cc1nc(NC(=O)N2CCCC2C(N)=O)sc1-c1ccnc(C(C)(C)C(F)(F)F)c1"
  quantity.unit: "%"
  recorded.measurement: 17.2
- molecule: "CC1(C)CCC(CN2CCN(c3ccc(C(=O)NS(=O)(=O)c4ccc(NCC5CCOCC5)c([N+](=O)[O-])c4)c(Oc4cnc5[nH]ccc5c4)c3)CC2)=C(c2ccc(Cl)cc2)C1 + CC(Nc1ccc2c(c1)OCCn1cc(N3C(=O)OCC3C(F)F)nc1-2)C(N)=O"
  quantity.unit: "%"
  recorded.measurement: 13
- molecule: "C#Cc1c(F)ccc2cc(O)cc(-c3ncc4c(N5CC6CCC(C5)N6)nc(OCC56CCCN5CC(F)C6)nc4c3F)c12 (configuration not stated) + COc1c(OCCCN2CCOCC2)ccc2c3n(c(=NC(=O)c4cnc(N)nc4)nc12)CCN3"
  quantity.unit: "%"
  recorded.measurement: 3.22
- molecule: "Cn1nccc1Nc1nccc(-c2ccn(C(CO)c3ccc(Cl)c(F)c3)c(=O)c2)n1 (configuration not stated) + CC(Nc1ncnc2nc[nH]c12)c1cc2cccc(Cl)c2c(=O)n1-c1ccccc1"
  quantity.unit: "%"
  recorded.measurement: 74.6
- molecule: "Cn1ncnc1[C@H]1c2n[nH]c(=O)c3cc(F)cc(c23)N[C@@H]1c1ccc(F)cc1 + Cc1nc(NC(=O)N2CCCC2C(N)=O)sc1-c1ccnc(C(C)(C)C(F)(F)F)c1"
  quantity.unit: "%"
  recorded.measurement: 21.3

Ask | Query (molecule): CCCS(=O)(=O)Nc1ccc(F)c(C(=O)c2c[nH]c3ncc(-c4ccc(Cl)cc4)cc23)c1F + COc1c(OCCCN2CCOCC2)ccc2c3n(c(=NC(=O)c4cnc(N)nc4)nc12)CCN3 ; field requested: viability, T/C
Reply | 4.22

Ask | Query (molecule): CC(C)NCC(C(=O)N1CCN(c2ncnc3c2C(C)CC3O)CC1)c1ccc(Cl)cc1 (configuration not stated) + CC(Nc1ncnc2nc[nH]c12)c1cc2cccc(Cl)c2c(=O)n1-c1ccccc1 ; field requested: viability, T/C
Reply | 81.1

Ask | Query (molecule): CNC(=O)c1ccc(N2C(=S)N(c3ccc(C#N)c(C(F)(F)F)c3)C(=O)C2(C)C)cc1F + CC(Nc1ccc2c(c1)OCCn1cc(N3C(=O)OCC3C(F)F)nc1-2)C(N)=O ; field requested: viability, T/C
Reply | 11.8

Ask | Query (molecule): CC(C)NCC(C(=O)N1CCN(c2ncnc3c2C(C)CC3O)CC1)c1ccc(Cl)cc1 (configuration not stated) + COc1c(OCCCN2CCOCC2)ccc2c3n(c(=NC(=O)c4cnc(N)nc4)nc12)CCN3 ; field requested: viability, T/C
Reply | 3.36
